# PROCEDURE SUMMARY: Primary qHTS for delayed death inhibitors of the malarial parasite plastid, 96 hour incubation; also: potency is read from the fitted curve at half-maximal effect
# APPLIED CONDITIONS: P. falciparum luciferase reporter growth; series mostly up to 28.7 µM
# Text: The goal of this screen is to discover new antimalarial compounds that act by inhibiting the development of the apicoplast in the malarial parasite Plasmodium falciparum. […] We have developed a cell-based assay that measures parasite growth based on the expression of an integrated copy of a firefly luciferase reporter. […] Growth inhibition is detected by a decrease in luciferase activity. […]
Among all 320,000 compounds or so, about 22,000 (6.9%) were called active. About 27% were inconclusive and are not listed. Shown is part of a subset that was picked to be rich in actives.
REPORTED ENDPOINT: Potency

Consider the following illustrative entries.
State, in one line, measured Potency of "O=C(NCc1ccccc1Cl)C1CCN(S(=O)(=O)c2cccc3nonc23)CC1"
inactive

State, in one line, measured Potency of "CCOC(=O)c1ccccc1NS(=O)(=O)c1ccc(OC)cc1"
inactive

State, in one line, measured Potency of Cc1ccc(N2CC(C(=O)NCCS(=O)(=O)N3CCN(c4ccccc4)CC3)CC2=O)cc1 (stereo not drawn)
inactive

State, in one line, measured Potency of "O=Cc1cn(-c2ccccc2)nc1-c1ccccn1"
inactive

***
State, in one line, measured Potency of "COc1ccc(NC(=O)c2cnc(NS(=O)(=O)c3ccccc3)nc2)cc1"
inactive

State, in one line, measured Potency of "Cn1c(CCN2CCCC2)nc2cc(NS(=O)(=O)c3ccccc3)ccc21"
inactive

State, in one line, measured Potency of COCCNC(=O)C1CCN(C(=O)C2CC(=O)N(c3ccc(C)cc3)C2)CC1 (stereo not drawn)
inactive

State, in one line, measured Potency of "O=C1CCc2cc(S(=O)(=O)N3CCC(C(=O)NCc4ccccc4Cl)CC3)ccc2N1"
13.1 µM (active)

State, in one line, measured Potency of "COc1cc2ccccc2cc1C(=O)Nc1ccc(S(=O)(=O)Nc2cc(C)on2)cc1"
inactive

State, in one line, measured Potency of "C[N+](C)(CCCCCC[N+](C)(C)CCCN1C(=O)c2cccc3cccc(c23)C1=O)CCCN1C(=O)c2cccc3cccc(c23)C1=O"
0.233 µM (active)

State, in one line, measured Potency of "COc1cc(C(=O)N[C@@H](C)C(=O)NCc2ccco2)cc(OC)c1OC"
inactive

====

# PROCEDURE SUMMARY: Primary qHTS for delayed death inhibitors of the malarial parasite plastid, 96 hour incubation
# APPLIED CONDITIONS: P. falciparum luciferase reporter growth; series mostly up to 28.7 µM
Hit rate of the full screen: of about 320,000 compounds, about 22,000 (6.9%) were called active. Another 27% or so got no clear call; they are omitted. The call rests on the fitted dose curve; in most records, active means well fitted inhibition curve with a large enough effect; inconclusive means small, poorly fitted or top-dose-only effect, or another doubt; inactive means no such curve, though single readings can be large or run the other way. The sample holds actives, similar compounds and a random draw of the others, so the mix is not that of the screen.
Return exactly one item of active, inactive

Please share the test call associated with "NS(=O)(=O)c1ccc(CCNc2nc(C(F)(F)F)nc3ccccc23)cc1" .
inactive

Please share the test call associated with "COc1cc2ccccc2cc1C(=O)N1CCOCC1" .
inactive

Please share the test call associated with "CCCCc1nc(NCc2ccccc2)c(C#N)c2c1CCCC2" .
active

Please share the test call associated with "CN(C)c1ccc2c(=O)[nH][nH]c(=O)c2c1" .
inactive

Please share the test call associated with Cc1cc(C)cc(C(=O)NC(CC(N)=O)c2ccc(N3CCC(N4CCCCC4)CC3)c([N+](=O)[O-])c2)c1 (stereo unspecified) .
inactive

Please share the test call associated with CC(C)C[C@H](NC(=O)C1CCC(CNC(=O)[C@@H]2CCCN2C(=O)OC(C)(C)C)CC1)C(=O)O (stereo partly specified) .
inactive

Please share the test call associated with "CCOc1ccc(S(=O)(=O)N2CCC(C(=O)OCc3ccc(OC)cc3)CC2)cc1" .
inactive

Please share the test call associated with "Cc1ccc(S(=O)(=O)NNC(=O)/C=C/c2cccc(F)c2)cc1" .
inactive

Please share the test call associated with "Cc1csc(NC(=O)CSc2nc(=O)cc(N)n2-c2ccc(F)cc2)n1" .
inactive

Please share the test call associated with "CCOC(=O)CSc1nc2ccc(C)cc2n2cnnc12" .
inactive

Please share the test call associated with "CCOC(=O)Cn1c(SC)nc2sc3c(c2c1=O)CC(C)(C)OC3" .
inactive

Please share the test call associated with "Cc1ccccc1OCC(=O)Nc1ccc2c(c1)ncn2C" .
inactive

Please share the test call associated with "CC1(C)Cc2cccc(OCC(=O)N3CCN(c4ccc([N+](=O)[O-])cc4)CC3)c2O1" .
active

Please share the test call associated with "Cc1ccn2c(=O)nc(SCC(=O)NCc3ccc4c(c3)OCO4)nc2c1" .
inactive

Please share the test call associated with "COc1ccc(S(=O)(=O)NCC(=O)NCc2cc(=O)n(C)c(=O)n2C)cc1F" .
inactive

Please share the test call associated with "CC(=O)c1c(C)[nH]c(=S)c(C#N)c1-c1ccc(F)cc1" .
inactive

Please share the test call associated with "CSc1nc(C)nc(C2CC2)c1C#N" .
inactive

Please share the test call associated with COc1cc(NC(=S)N2CCCC(C)C2)cc(OC)c1OC (stereo unspecified) .
active

Please share the test call associated with "COC(=O)c1ccccc1OCC(=O)N1CCN(c2ccc(Cl)cc2)CC1" .
inactive

Please share the test call associated with COc1ccc(NC(=S)N2CCCC(CO)C2)c(OC)c1 (stereo unspecified) .
inactive

Please share the test call associated with "CN(C)C(=O)c1ccc(NC(=O)COC(=O)c2cc3c(s2)CCCCC3)cc1" .
inactive

Please share the test call associated with CCN(CC(=O)Nc1ccc(NC(C)=O)cc1)C(=O)C1CC(=O)N(Cc2ccc(C)cc2)C1 (stereo unspecified) .
inactive

Please share the test call associated with "Cc1cc(-n2nc(C)cc2C)n2ncc(-c3ccccc3)c2n1" .
inactive

Please share the test call associated with CC(O)c1nc2ccccc2n1Cc1ccc([N+](=O)[O-])cc1 (stereo unspecified) .
active

Please share the test call associated with "O=C(N/N=C/c1ccccc1O)C1CCCC1" .
inactive

Please share the test call associated with "O=c1[nH][nH]c(=O)c2cc(N3CCCC3)ccc12" .
active

Please share the test call associated with "Cc1cc(C)n(-c2nnc(N3CCN(c4ccccc4)CC3)nn2)n1" .
active

Please share the test call associated with "COc1ccc(Nc2ccc([N+](=O)[O-])cn2)cn1" .
inactive

Please share the test call associated with CCc1ccc(C(CNc2nc(C(F)(F)F)nc3ccccc23)N(C)C)cc1 (stereo unspecified) .
active

Please share the test call associated with "Cc1cc(N2CCN(c3ccccc3)CC2)nc(N2CCOCC2)n1" .
inactive

Please share the test call associated with "Cc1cc(=O)oc2c1ccc1ccccc12" .
inactive

Please share the test call associated with O=C(Cn1c(=O)n(Cc2ccco2)c(=O)c2ccccc21)NCC1CCCO1 (stereo unspecified) .
inactive

Please share the test call associated with "O=C1c2ccccc2S(=O)(=O)N1Cc1c(F)cccc1Cl" .
inactive

Please share the test call associated with "Cc1ccc(NS(=O)(=O)c2ccc3c(c2)CC(=O)N3)cc1Cl" .
inactive

Please share the test call associated with "CC1(C)Cc2c(sc3nc4n(c(=N)c23)CCCCC4)CO1" .
inactive

Please share the test call associated with "CSc1ccc(Cl)c(C(=O)OCC(=O)N2CCNC2=O)c1" .
inactive

Please share the test call associated with COc1cc(NC(=S)N2CCCC(C)C2)c(OC)cc1Cl (stereo unspecified) .
inactive

Please share the test call associated with "COc1nnc(-c2ccc(C)c(S(=O)(=O)N(C)C)c2)c2ccccc12" .
inactive

Please share the test call associated with "Cc1ccc(C(=O)NNc2ncnc3ccccc23)cc1" .
inactive

Please share the test call associated with COc1ccc(CCNC(=O)Cn2c(=O)n(CC3CCCO3)c(=O)c3ccccc32)cc1OC (stereo unspecified) .
inactive

Please share the test call associated with O=C(N/N=C/C=C/c1ccccc1)C1CC1(c1ccccc1)c1ccccc1 (stereo unspecified) .
active

Please share the test call associated with "CC1(C)Cc2cccc(OCC(=O)Nc3nccs3)c2O1" .
inactive

Please share the test call associated with NC(=O)C1(C(N)=O)OC1c1ccc(Cl)cc1Cl (stereo unspecified) .
inactive

Please share the test call associated with "CCOC(=O)CNC(=O)CSc1ncccc1-c1nc2ccccc2[nH]1" .
inactive

Please share the test call associated with "O=c1c2cc(Br)ccc2nc(-c2cccc(Cl)c2)n1O" .
inactive

Please share the test call associated with "Cc1ccc(NS(=O)(=O)c2cc3c(cc2C)NC(=O)CO3)cc1" .
inactive

====

# PROCEDURE SUMMARY: Primary qHTS for delayed death inhibitors of the malarial parasite plastid, 96 hour incubation; also: potency is read from the fitted curve at half-maximal effect
# APPLIED CONDITIONS: P. falciparum luciferase reporter growth; series mostly up to 28.7 µM
In all, about 320,000 compounds went through this assay and about 22,000 (6.9%) were called active. Inconclusive results (about 27%) are left out. Only a selection was taken, and actives are over-represented in it overall.
REPORTED ENDPOINT: Potency

State, in one line, measured Potency of COc1ccc(-n2c(C)cc(C(=O)CN3C(=O)NC4(CCc5ccccc54)C3=O)c2C)cc1 (configuration not stated)
1.17 µM (active)

State, in one line, measured Potency of Cc1ccc(C(=O)CN2C(=O)NC3(CCc4ccccc43)C2=O)c(C)c1 (configuration not stated)
inactive

State, in one line, measured Potency of "CCOc1ccc(NC(=O)CCS(=O)(=O)c2ccc3c(c2)CCCN3C(=O)CC)cc1"
9.28 µM (active)

State, in one line, measured Potency of "CCCCCCCN=C(C)c1ccccc1O"
inactive

State, in one line, measured Potency of "CN(CC(=O)Nc1c(Cl)cccc1Cl)C(=O)c1ccncc1"
inactive

***
State, in one line, measured Potency of "O=C(COc1ccc(Cl)cc1Cl)N/N=C/c1ccccn1"
inactive

State, in one line, measured Potency of C[C@@H]1CC[C@@]2(OC1)O[C@H]1C[C@H]3[C@@H]4CC=C5C[C@@H](O)[C@H](O)C[C@]5(C)C4CC[C@]3(C)[C@H]1[C@@H]2C (some centres not stated)
inactive
